Target: Phosphatidylinositol 4,5-bisphosphate 3-kinase catalytic subunit alpha isoform (Homo sapiens, UniProt P42336)
Sequence (P42336 whole entry, canonical isoform): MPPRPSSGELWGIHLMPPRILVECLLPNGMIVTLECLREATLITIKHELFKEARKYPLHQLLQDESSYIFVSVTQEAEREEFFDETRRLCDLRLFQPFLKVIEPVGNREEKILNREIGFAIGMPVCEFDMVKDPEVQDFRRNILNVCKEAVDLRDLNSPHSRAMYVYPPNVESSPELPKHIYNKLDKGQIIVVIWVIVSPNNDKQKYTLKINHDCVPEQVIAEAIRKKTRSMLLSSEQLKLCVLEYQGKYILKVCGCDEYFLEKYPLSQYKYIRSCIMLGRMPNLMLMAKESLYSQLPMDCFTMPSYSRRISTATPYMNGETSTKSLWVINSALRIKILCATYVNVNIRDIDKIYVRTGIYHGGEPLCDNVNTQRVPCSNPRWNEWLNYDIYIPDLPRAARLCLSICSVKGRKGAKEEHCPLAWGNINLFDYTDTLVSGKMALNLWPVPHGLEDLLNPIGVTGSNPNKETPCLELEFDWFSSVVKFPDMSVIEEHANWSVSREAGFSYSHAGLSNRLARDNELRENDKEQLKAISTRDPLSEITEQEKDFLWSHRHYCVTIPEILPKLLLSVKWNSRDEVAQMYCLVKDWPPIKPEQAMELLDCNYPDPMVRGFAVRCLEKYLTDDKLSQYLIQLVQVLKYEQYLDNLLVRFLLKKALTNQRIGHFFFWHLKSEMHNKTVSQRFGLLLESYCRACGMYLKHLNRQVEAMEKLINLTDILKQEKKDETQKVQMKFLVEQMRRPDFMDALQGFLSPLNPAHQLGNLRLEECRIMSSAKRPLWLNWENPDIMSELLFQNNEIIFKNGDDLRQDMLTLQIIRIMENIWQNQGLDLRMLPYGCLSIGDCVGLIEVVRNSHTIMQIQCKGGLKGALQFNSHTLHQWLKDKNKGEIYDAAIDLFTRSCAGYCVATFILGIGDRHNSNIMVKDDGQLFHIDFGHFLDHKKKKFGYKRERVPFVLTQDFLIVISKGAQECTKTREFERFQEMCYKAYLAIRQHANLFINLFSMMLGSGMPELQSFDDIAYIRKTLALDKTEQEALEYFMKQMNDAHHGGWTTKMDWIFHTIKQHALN
Experiment: Inhibition of PI3Kalpha
readout: IC50

Inquiry: Would you kindly share the measured IC50 for CN(C)Cc1ccc(-c2cnn3c(-c4cccc(NC(=O)c5cccc(C(F)(F)F)c5)c4)ccnc23)cc1 ?
Reply text: > 2000 nM

---

Target: Dual specificity mitogen-activated protein kinase kinase 6 (Homo sapiens, UniProt P52564)
Sequence (P52564 whole entry): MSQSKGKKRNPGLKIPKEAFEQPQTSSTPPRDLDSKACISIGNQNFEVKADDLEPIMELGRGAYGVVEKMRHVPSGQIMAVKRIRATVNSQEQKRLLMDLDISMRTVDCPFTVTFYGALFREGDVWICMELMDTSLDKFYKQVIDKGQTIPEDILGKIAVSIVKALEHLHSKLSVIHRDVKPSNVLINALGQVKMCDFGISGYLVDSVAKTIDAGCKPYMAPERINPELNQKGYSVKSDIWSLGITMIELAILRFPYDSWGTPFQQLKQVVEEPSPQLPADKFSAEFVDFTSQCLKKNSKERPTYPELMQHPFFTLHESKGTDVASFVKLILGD
Assay: Inhibition of MKK6
readout: IC50

Inquiry: Fill blank: measured IC50 of the compound CN(C)Cc1ccc(-c2cnn3c(-c4cccc(NC(=O)c5cccc(C(F)(F)F)c5)c4)ccnc23)cc1 is ____.
Reply text: > 2 µM

---

Target: Inhibitor of nuclear factor kappa-B kinase subunit beta (Homo sapiens, UniProt O14920)
Sequence (O14920 whole entry): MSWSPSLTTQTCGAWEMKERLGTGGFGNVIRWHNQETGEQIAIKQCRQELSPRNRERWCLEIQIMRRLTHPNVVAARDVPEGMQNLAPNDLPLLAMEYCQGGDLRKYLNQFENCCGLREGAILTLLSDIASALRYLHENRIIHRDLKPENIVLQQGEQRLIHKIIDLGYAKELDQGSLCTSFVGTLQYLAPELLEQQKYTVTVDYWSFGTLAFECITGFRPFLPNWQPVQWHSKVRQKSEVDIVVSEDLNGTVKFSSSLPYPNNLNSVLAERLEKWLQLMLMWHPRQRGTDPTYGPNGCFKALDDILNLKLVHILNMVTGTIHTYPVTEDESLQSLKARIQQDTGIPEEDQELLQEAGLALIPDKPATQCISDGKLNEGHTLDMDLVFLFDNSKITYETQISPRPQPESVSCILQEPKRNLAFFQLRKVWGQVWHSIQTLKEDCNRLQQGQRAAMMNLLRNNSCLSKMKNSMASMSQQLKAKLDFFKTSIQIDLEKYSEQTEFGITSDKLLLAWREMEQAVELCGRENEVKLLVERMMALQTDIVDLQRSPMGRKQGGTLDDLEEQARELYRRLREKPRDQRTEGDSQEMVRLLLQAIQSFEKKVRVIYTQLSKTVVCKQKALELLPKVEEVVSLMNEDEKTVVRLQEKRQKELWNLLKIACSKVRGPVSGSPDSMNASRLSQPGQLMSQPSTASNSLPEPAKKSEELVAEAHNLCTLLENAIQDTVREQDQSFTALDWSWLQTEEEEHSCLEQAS
Test: Inhibition of IKK-beta
readout: IC50

Inquiry: Which IC50 is reported for this compound? CN(C)Cc1ccc(-c2cnn3c(-c4cccc(NC(=O)c5cccc(C(F)(F)F)c5)c4)ccnc23)cc1
Reply text: > 2000 nM

---

Target: Serine/threonine-protein kinase B-raf (Homo sapiens, UniProt P15056)
Sequence (P15056 whole entry): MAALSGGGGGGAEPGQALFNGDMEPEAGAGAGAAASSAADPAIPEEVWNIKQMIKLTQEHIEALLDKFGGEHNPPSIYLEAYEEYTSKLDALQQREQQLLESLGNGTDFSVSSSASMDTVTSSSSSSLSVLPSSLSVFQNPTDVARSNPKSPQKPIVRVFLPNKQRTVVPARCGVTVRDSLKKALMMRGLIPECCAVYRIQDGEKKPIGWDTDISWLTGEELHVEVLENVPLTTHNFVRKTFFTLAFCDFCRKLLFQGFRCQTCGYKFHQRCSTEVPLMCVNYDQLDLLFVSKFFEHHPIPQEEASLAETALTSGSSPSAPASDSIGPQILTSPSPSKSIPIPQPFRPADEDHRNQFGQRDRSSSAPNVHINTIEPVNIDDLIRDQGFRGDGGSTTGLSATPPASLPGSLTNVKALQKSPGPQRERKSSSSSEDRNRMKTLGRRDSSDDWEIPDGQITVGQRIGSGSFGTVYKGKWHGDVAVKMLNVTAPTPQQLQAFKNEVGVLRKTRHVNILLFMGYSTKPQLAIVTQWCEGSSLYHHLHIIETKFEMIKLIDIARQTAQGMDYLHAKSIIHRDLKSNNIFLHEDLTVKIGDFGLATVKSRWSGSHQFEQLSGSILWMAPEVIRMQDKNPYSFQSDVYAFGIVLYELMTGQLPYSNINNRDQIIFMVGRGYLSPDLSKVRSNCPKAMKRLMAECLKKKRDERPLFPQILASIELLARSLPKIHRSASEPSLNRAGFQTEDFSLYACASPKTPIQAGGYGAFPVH
Assay: Inhibition of human recombinant B-Raf expressed in Sf9 cells
readout: pIC50
Answer as the number alone; pIC50 is minus log10 of concentration in mol/L.

[[record]]
structure_smiles_string = "COc1ccc(NC(=O)c2cccc(C(F)(F)F)c2)cc1-c1ccnc2c(-c3cn[nH]c3)cnn12"
assayed_system = "Serine/threonine-protein kinase B-raf (Homo sapiens, UniProt P15056)"
measured_result = 7.01

[[record]]
structure_smiles_string = "CCN1CCN(Cc2cc(-c3cnn4c(-c5cccc(NC(=O)c6cccc(C(F)(F)F)c6)c5)ccnc34)co2)CC1"
assayed_system = "Serine/threonine-protein kinase B-raf (Homo sapiens, UniProt P15056)"
measured_result = 6.66

[[record]]
structure_smiles_string = "COCCOCC(=O)Nc1ccc(-c2cnn3c(-c4cccc(NC(=O)c5cccc(C(F)(F)F)c5)c4)ccnc23)cc1"
assayed_system = "Serine/threonine-protein kinase B-raf (Homo sapiens, UniProt P15056)"
measured_result = 6.86

[[record]]
structure_smiles_string = "O=C(Nc1cccc(-c2ccnc3c(-c4cccnc4)cnn23)c1)c1cccc(C(F)(F)F)c1"
assayed_system = "Serine/threonine-protein kinase B-raf (Homo sapiens, UniProt P15056)"
measured_result = 6.95

[[record]]
structure_smiles_string = "CN1CCN(c2ccc(-c3cnn4c(-c5cccc(NC(=O)c6cccc(C(F)(F)F)c6)c5)ccnc34)cn2)CC1"
assayed_system = "Serine/threonine-protein kinase B-raf (Homo sapiens, UniProt P15056)"
measured_result = 7.36


Inquiry: Enter reported pIC50 observed with Serine/threonine-protein kinase B-raf (Homo sapiens, UniProt P15056) for O=C(Nc1cccc(-c2ccnc3c(-c4cnc(N5CCOCC5)nc4)cnn23)c1)c1cccc(C(F)(F)F)c1
Reply text: 6.03

Inquiry: Provide value of pIC50 for this record tested with Serine/threonine-protein kinase B-raf (Homo sapiens, UniProt P15056): CN(C)CC(=O)Nc1ccc(-c2cnn3c(-c4cccc(NC(=O)c5cccc(C(F)(F)F)c5)c4)ccnc23)cc1
Reply text: 7.47

Inquiry: Query for Serine/threonine-protein kinase B-raf (Homo sapiens, UniProt P15056): what pIC50 does the record show for CN(C)c1ccc(-c2cnn3c(-c4cccc(NC(=O)c5cccc(C(F)(F)F)c5)c4)ccnc23)cc1 ?
Reply text: 6.51
